assay: Clearance in cynomolgus monkey at 0.1 mg/kg, iv or 1 mg/kg, po; format: ADME, organism-based, Macaca fascicularis; details: in vivo
PARAMETER: clearance (mL/min/kg)
Numbers only, in mL/min/kg.

Prompt: Fill blank: measured clearance of the molecule NC(=O)c1cc(-c2ccc(S(=O)(=O)[C@H]3CC[C@H](Nc4ccc(C(F)(F)F)cn4)CC3)cc2)ccn1 is ____.
Response: 1.1

* * *

experiment: Volume of distribution at steady state in cynomolgus monkey at 0.1 mg/kg, iv or 1 mg/kg, po; type: ADME, organism-based, Macaca fascicularis; details: in vivo, read-out: Vdss
PARAMETER: Vd
Please report the result as a number followed by the unit.

Prompt: Fill blank: measured Vd of the compound NC(=O)c1cc(-c2ccc(S(=O)(=O)[C@H]3CC[C@H](Nc4ccc(C(F)(F)F)cn4)CC3)cc2)ccn1 is ____.
Response: 0.704 L/kg

* * *

assay: Solubility of the compound in buffer solution at pH 6.8; type: physicochemical
PARAMETER: solubility

Prompt: Fill blank: measured solubility of the compound CC(C)(C)c1ccc(S(=O)(=O)N2CCC(Nc3ccc(C#N)cn3)CC2)cc1 is ____.
Response: < 0.1 µg/mL

* * *

target: CYP2D6 (Homo sapiens, UniProt P10635); experiment: Inhibition of CYP2D6 (unknown origin) at 10 uM relative to control; type: ADME
Sequence (P10635 whole entry): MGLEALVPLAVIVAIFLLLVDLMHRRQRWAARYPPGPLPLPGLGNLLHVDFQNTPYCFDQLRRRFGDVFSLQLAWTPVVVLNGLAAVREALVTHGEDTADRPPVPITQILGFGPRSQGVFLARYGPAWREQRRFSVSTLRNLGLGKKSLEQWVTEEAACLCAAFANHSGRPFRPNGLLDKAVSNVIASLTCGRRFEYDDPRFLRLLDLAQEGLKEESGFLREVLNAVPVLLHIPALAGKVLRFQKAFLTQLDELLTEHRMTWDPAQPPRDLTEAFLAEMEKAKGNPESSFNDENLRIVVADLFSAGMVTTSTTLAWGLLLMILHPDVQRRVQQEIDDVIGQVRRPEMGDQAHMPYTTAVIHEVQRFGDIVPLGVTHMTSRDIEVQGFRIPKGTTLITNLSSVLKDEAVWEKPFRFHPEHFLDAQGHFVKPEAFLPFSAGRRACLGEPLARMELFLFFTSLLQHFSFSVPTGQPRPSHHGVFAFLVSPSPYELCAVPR
PARAMETER: inhibition at 10 µM

Prompt: Fill blank: measured inhibition at 10 µM of the compound NC(=O)c1cc(-c2ccc(S(=O)(=O)[C@H]3CC[C@H](Nc4ccc(C(F)(F)F)cn4)CC3)cc2)ccn1 is ____.
Response: < 50%

* * *

biological target: CYP1A2 (Homo sapiens, UniProt P05177); test: Inhibition of CYP1A2 (unknown origin) at 10 uM relative to control; assay type: ADME
Sequence (P05177 whole entry): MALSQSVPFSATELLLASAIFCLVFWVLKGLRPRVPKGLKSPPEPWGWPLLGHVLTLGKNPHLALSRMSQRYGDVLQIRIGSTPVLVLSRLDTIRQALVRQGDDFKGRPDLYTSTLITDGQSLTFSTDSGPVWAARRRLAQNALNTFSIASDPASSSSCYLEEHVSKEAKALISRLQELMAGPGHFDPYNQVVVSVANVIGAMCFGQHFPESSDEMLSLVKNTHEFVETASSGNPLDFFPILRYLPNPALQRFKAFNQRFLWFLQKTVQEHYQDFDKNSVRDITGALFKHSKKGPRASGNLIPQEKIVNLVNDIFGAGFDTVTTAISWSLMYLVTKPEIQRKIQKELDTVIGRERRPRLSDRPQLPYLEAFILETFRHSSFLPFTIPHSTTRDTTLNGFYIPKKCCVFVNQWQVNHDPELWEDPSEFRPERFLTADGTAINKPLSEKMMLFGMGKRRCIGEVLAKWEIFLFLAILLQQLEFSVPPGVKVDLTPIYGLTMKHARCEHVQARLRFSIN
PARAMETER: inhibition at 10 µM

Prompt: Fill blank: measured inhibition at 10 µM of the compound NC(=O)c1cc(-c2ccc(S(=O)(=O)[C@H]3CC[C@H](Nc4ccc(C(F)(F)F)cn4)CC3)cc2)ccn1 is ____.
Response: < 50%

* * *

target: C-C chemokine receptor type 6 (Homo sapiens, UniProt P51684); test: Inhibition of human CCR6 expressed in CHO cells assessed as decrease in CCL20-induced reduction of forskolin-stimulated cAMP accumulation preincubated for 30 mins followed agonist addition measured after 30 mins by HTRF assay
Sequence (P51684 whole entry): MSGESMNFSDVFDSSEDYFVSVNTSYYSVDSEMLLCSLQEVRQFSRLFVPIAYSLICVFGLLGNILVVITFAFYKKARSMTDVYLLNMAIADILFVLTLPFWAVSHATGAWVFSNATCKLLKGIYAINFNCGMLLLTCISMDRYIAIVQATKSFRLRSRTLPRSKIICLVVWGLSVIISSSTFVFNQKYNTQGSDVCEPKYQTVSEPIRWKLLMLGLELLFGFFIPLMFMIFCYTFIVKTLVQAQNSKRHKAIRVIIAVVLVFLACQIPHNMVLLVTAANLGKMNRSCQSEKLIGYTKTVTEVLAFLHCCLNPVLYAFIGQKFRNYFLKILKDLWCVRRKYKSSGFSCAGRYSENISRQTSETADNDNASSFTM
PARAMETER: IC50 (nM)
Give bare numbers, in nM.

Some compounds with recorded IC50:
[[record]]
smiles = "COc1ccc(S(=O)(=O)N2CCC(Nc3ccc(C#N)cc3)CC2)cc1"
unit_name = "nM"
quantitative_readout = 1900

[[record]]
smiles = "N#Cc1ccc(NC2CCN(S(=O)(=O)c3ccc(Cl)cc3)CC2)nc1"
unit_name = "nM"
quantitative_readout = 1500


Please examine the following record next.
Prompt: Fill blank: measured IC50 of the compound Cc1ccc(S(=O)(=O)N2CCC(Nc3ccc(C#N)cn3)CC2)cc1 is ____.
Response: 3100

* * *

Field: pIC50. Provide a value for each of the molecules that follow.
target: C-C chemokine receptor type 6 (Homo sapiens, UniProt P51684); test: Inhibition of human CCR6 expressed in CHO cells assessed as decrease in CCL20-induced reduction of forskolin-stimulated cAMP accumulation preincubated for 30 mins followed agonist addition measured after 30 mins by HTRF assay
Numbers only, as −log10 of the molar value.

Hey, can you go through the list below and give me pIC50 for every item?
1. COc1ccc(S(=O)(=O)N2CCC(Nc3cccc(C#N)n3)CC2)cc1
2. N#Cc1ccc(NC2CCN(S(=O)(=O)c3ccc(-c4ccccc4)cc3)CC2)nc1
3. COc1ccc(S(=O)(=O)N2CCC(Nc3ccc(C#N)cn3)CC2)cc1

Response:
5.13
6.54
5.60

Reference for the values: ChEMBL document CHEMBL4229521
